All values here come from ChEMBL document CHEMBL3885881.

Entries annotated with measured ALANINE AMINOTRANSFERASE
organism: Rattus norvegicus; experiment: DrugMatrix - Regimen: Daily Repeat; assay type: toxicity, organism-based, Sprague-Dawley; parameters: regimen Daily Repeat, gender Male, age 6-8 weeks; settings: in vivo, po, 0 mg/kg, 120 h, tissue Plasma, route oral GAVAGE, dose level Control, time 5 day, vehicle .5 % CMC
recorded.endpoint: ALANINE AMINOTRANSFERASE (u/L)

> print(dat)
                                   compound         recorded.endpoint  reported
1  Cc1ccc(/N=C/N(C)/C=N/c2ccc(C)cc2C)c(C)c1  ALANINE AMINOTRANSFERASE     54.17
2  CCCN1C[C@H](CSC)C[C@@H]2c3cccc4[nH]cc(c34)C[C@H]21 [PERGOLIDE]  ALANINE AMINOTRANSFERASE     43.33
3  O=C(CCCN1CC=C(n2c(=O)[nH]c3ccccc32)CC1)c1ccc(F)cc1  ALANINE AMINOTRANSFERASE     42.17

====

Entries annotated with measured MEAN CORPUSCULAR HEMOGLOBIN
organism: Rattus norvegicus; assay: DrugMatrix - Regimen: Daily Repeat; assay type: toxicity, organism-based, Sprague-Dawley; set-up: regimen Daily Repeat, gender Male, age 6-8 weeks; conditions: in vivo, iv, 0 mg/kg, 72 h, tissue Blood, dose level Control, time 3 day, vehicle 100 % SALINE
Starred links: 1 amine or outer side, 2 acyl side, 3 side chain; linkers in the order of their positions; H or OH if unused. Positions of bridges follow the written chain, without caps; N, C: chain ends. Non-standard residues stand in square brackets, D forms with d. Residues, ends and D or L forms follow the SMILES beside them. Chains are numbered I, II in the order given. Actinocin(9to1) = Cc1c2oc3c(C)ccc(C(=O)[*:1])c3nc-2c(C(=O)[*:2])c(N)c1=O; NMeV = CN[C@H](C(=O)O)C(C)C; Sar = CNCC(=O)O
recorded.endpoint: MEAN CORPUSCULAR HEMOGLOBIN (pg)

molecule	recorded.endpoint	readout.units	reported
COc1cc2c3cc1Oc1cc(ccc1O)C[C@@H]1c4c(cc(OC)c(O)c4Oc4ccc(cc4)C[C@@H]3N(C)CC2)CC[N+]1(C)C.[Cl-]	MEAN CORPUSCULAR HEMOGLOBIN	pg	24.87
CC[C@]1(O)C[C@H]2CN(CCc3c([nH]c4ccccc34)[C@@](C(=O)OC)(c3cc4c(cc3OC)N(C=O)[C@H]3[C@@](O)(C(=O)OC)[C@H](OC(C)=O)[C@]5(CC)C=CCN6CC[C@]43[C@@H]65)C2)C1 [VINCRISTINE]	MEAN CORPUSCULAR HEMOGLOBIN	pg	23.95
Cc1c2oc3c(C)ccc(C(=O)N[C@@H]4C(=O)N[C@H](C(C)C)C(=O)N5CCC[C@H]5C(=O)N(C)CC(=O)N(C)[C@@H](C(C)C)C(=O)O[C@@H]4C)c3nc-2c(C(=O)N[C@@H]2C(=O)N[C@H](C(C)C)C(=O)N3CCC[C@H]3C(=O)N(C)CC(=O)N(C)[C@@H](C(C)C)C(=O)O[C@@H]2C)c(N)c1=O [DACTINOMYCIN] (I: T[dV]P[Sar][NMeV] / II: T[dV]P[Sar][NMeV]; ester I:1-I:C, II:1-II:C; linker I:N-II:N via Actinocin(9to1))	MEAN CORPUSCULAR HEMOGLOBIN	pg	24.98
Cc1ccc(N(CC2=NCCN2)c2cccc(O)c2)cc1 [PHENTOLAMINE]	MEAN CORPUSCULAR HEMOGLOBIN	pg	24.22
